The reported measurements were obtained from PubChem BioAssay AID1963840.

Tested on: 695427-040-R-J1-PDC complex spheroid viability
Protocol notes: Anticancer human tumor 695427-040-R-J1-PDC patient-derived colon adenocarcinoma cell line growth inhibition [POLQ]
Reported conditions: second compound 3.16 µM; first compound 10 µM; active compounds read low
Please use T for viability, T/C under 80% and F for everything else, ties included.

| Molecule | Class |
| --- | --- |
| CC1COCCN1c1cc(C2(O)CC3CCC(C2)O3)c2cnn(-c3ccn[nH]3)c2n1 (stereo not given) + Cc1cccc(N(C)C(=O)C2C(O)CCN2c2nc(C)cc(C(F)(F)F)c2C#N)c1 | T |
| O=C(c1cc(Cc2n[nH]c(=O)c3ccccc23)ccc1F)N1CCN(C(=O)C2CC2)CC1 + Nc1ccc(C#CCN(C(=O)Cc2ncc(C(F)(F)F)cc2C(F)(F)F)c2ccc(F)cc2)nn1 | F |
| COc1ccc([C@@H](O)c2cc(-c3ncnc4cc(N5CCOCC5)ccc34)c(F)cc2Cl)nn1 + COC1C(OC(N)=O)C(O)C(Oc2ccc3c(O)c(NC(=O)c4ccc(O)c(CC=C(C)C)c4)c(=O)oc3c2C)OC1(C)C | T |
| C=CC(=O)N1CCN(c2nc(=O)n(-c3c(C)ccnc3C(C)C)c3nc(-c4c(O)cccc4F)c(F)cc23)C(C)C1 (stereo not given) + Nc1ccc(C#CCN(C(=O)Cc2ncc(C(F)(F)F)cc2C(F)(F)F)c2ccc(F)cc2)nn1 | F |
| C=CC(=O)N1CCN(c2nc(=O)n(-c3c(C)ccnc3C(C)C)c3nc(-c4c(O)cccc4F)c(F)cc23)C(C)C1 (stereo not given) + COC1C(OC(N)=O)C(O)C(Oc2ccc3c(O)c(NC(=O)c4ccc(O)c(CC=C(C)C)c4)c(=O)oc3c2C)OC1(C)C | F |
| CC1COCCN1c1cc(C2(O)CC3CCC(C2)O3)c2cnn(-c3ccn[nH]3)c2n1 (stereo not given) + Nc1ccc(C#CCN(C(=O)Cc2ncc(C(F)(F)F)cc2C(F)(F)F)c2ccc(F)cc2)nn1 | T |
| COc1cccc2c1C(=O)c1c(O)c3c(c(O)c1C2=O)CC(O)(C(=O)CO)CC3OC1CC(N)C(O)C(C)O1 (stereo not given) + Nc1ccc(C#CCN(C(=O)Cc2ncc(C(F)(F)F)cc2C(F)(F)F)c2ccc(F)cc2)nn1 | T |
| O=c1[nH]cc(F)c(=O)[nH]1 + COC1C(OC(N)=O)C(O)C(Oc2ccc3c(O)c(NC(=O)c4ccc(O)c(CC=C(C)C)c4)c(=O)oc3c2C)OC1(C)C | F |

---

Tested on: 695427-040-R-J1-PDC complex spheroid viability
Protocol notes: Anticancer human tumor 695427-040-R-J1-PDC cell line growth inhibition [POLQ];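 note: spheroids exposed to compounds for seven days; 100% = DMSO vehicle control viability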
Reported conditions: second compound 10 µM; first compound 0.316 µM; active compounds read low

| Compound | Unit tag | viability, T/C |
| --- | --- | --- |
| C=CCn1c(=O)c2cnc(Nc3ccc(N4CCN(C)CC4)cc3)nc2n1-c1cccc(C(C)(C)O)n1 + COC1C(OC(N)=O)C(O)C(Oc2ccc3c(O)c(NC(=O)c4ccc(O)c(CC=C(C)C)c4)c(=O)oc3c2C)OC1(C)C | % | 103 |
| C=CC(=O)N1CCN(c2nc(=O)n(-c3c(C)ccnc3C(C)C)c3nc(-c4c(O)cccc4F)c(F)cc23)C(C)C1 (configuration not stated) + COC1C(OC(N)=O)C(O)C(Oc2ccc3c(O)c(NC(=O)c4ccc(O)c(CC=C(C)C)c4)c(=O)oc3c2C)OC1(C)C | % | 104 |

---

Tested on: 695427-040-R-J1-PDC complex spheroid viability
Protocol notes: Anticancer human tumor 695427-040-R-J1-PDC cell line growth inhibition [POLQ];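 note: spheroids exposed to compounds for seven days; 100% = DMSO vehicle control viability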
Reported conditions: second compound 10 µM; first compound 0.316 µM; active compounds read low
The following compounds are shown together with reported viability, T/C values.

| Compound | Target desc | viability, T/C |
| --- | --- | --- |
| O=C(c1cc(Cc2n[nH]c(=O)c3ccccc23)ccc1F)N1CCN(C(=O)C2CC2)CC1 + COC1C(OC(N)=O)C(O)C(Oc2ccc3c(O)c(NC(=O)c4ccc(O)c(CC=C(C)C)c4)c(=O)oc3c2C)OC1(C)C | 695427-040-R-J1-PDC complex spheroid viability | 115% |
| CCc1cc2c(N3CCc4c(cc(Cn5ccnc5)cc4-c4cn(C)nc4C(F)(F)F)C3=O)cc(C)nc2c(OC)n1 + COC1C(OC(N)=O)C(O)C(Oc2ccc3c(O)c(NC(=O)c4ccc(O)c(CC=C(C)C)c4)c(=O)oc3c2C)OC1(C)C | 695427-040-R-J1-PDC complex spheroid viability | 110% |
| CNCc1ccc(-c2[nH]c3cc(F)cc4c3c2CCNC4=O)cc1 + Cc1cccc(N(C)C(=O)C2C(O)CCN2c2nc(C)cc(C(F)(F)F)c2C#N)c1 | 695427-040-R-J1-PDC complex spheroid viability | 88.9% |
| Nc1ccn(C2OC(CO)C(O)C2(F)F)c(=O)n1 (stereo not given) + Cc1cccc(N(C)C(=O)C2C(O)CCN2c2nc(C)cc(C(F)(F)F)c2C#N)c1 | 695427-040-R-J1-PDC complex spheroid viability | 75.6% |
| CNCc1ccc(-c2[nH]c3cc(F)cc4c3c2CCNC4=O)cc1 + Nc1ccc(C#CCN(C(=O)Cc2ncc(C(F)(F)F)cc2C(F)(F)F)c2ccc(F)cc2)nn1 | 695427-040-R-J1-PDC complex spheroid viability | 92.3% |

---

The following compounds are shown together with reported viability, T/C values.
Tested on: 695427-040-R-J1-PDC complex spheroid viability
Protocol notes: Anticancer human tumor 695427-040-R-J1-PDC cell line growth inhibition [POLQ];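 note: spheroids exposed to compounds for seven days; 100% = DMSO vehicle control viability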
Reported conditions: second compound 3.16 µM; first compound 0.0316 µM; active compounds read low

| Compound | viability, T/C [%] |
| --- | --- |
| COc1cc(C2c3cc4c(cc3C(OC3OC5COC(C)OC5C(O)C3O)C3COC(=O)C23)OCO4)cc(OC)c1O (stereo unspecified) + Nc1ccc(C#CCN(C(=O)Cc2ncc(C(F)(F)F)cc2C(F)(F)F)c2ccc(F)cc2)nn1 | 96.2 |
| CCCS(=O)(=O)Nc1ccc(F)c(C(=O)c2c[nH]c3ncc(-c4ccc(Cl)cc4)cc23)c1F + Cc1cccc(N(C)C(=O)C2C(O)CCN2c2nc(C)cc(C(F)(F)F)c2C#N)c1 | 100 |
| CNCc1ccc(-c2[nH]c3cc(F)cc4c3c2CCNC4=O)cc1 + COC1C(OC(N)=O)C(O)C(Oc2ccc3c(O)c(NC(=O)c4ccc(O)c(CC=C(C)C)c4)c(=O)oc3c2C)OC1(C)C | 101 |
| CC1COCCN1c1cc(C2(S(C)(=N)=O)CC2)nc(-c2ccnc3[nH]ccc23)n1 (stereo unspecified) + Cc1cccc(N(C)C(=O)C2C(O)CCN2c2nc(C)cc(C(F)(F)F)c2C#N)c1 | 103 |
| CC(C)n1c(=O)n(C)c2cnc3cc(F)c(-c4ccc(OCCCN5CCCCC5)nc4)cc3c21 + Nc1ccc(C#CCN(C(=O)Cc2ncc(C(F)(F)F)cc2C(F)(F)F)c2ccc(F)cc2)nn1 | 107 |
| C=CCn1c(=O)c2cnc(Nc3ccc(N4CCN(C)CC4)cc3)nc2n1-c1cccc(C(C)(C)O)n1 + Nc1ccc(C#CCN(C(=O)Cc2ncc(C(F)(F)F)cc2C(F)(F)F)c2ccc(F)cc2)nn1 | 107 |
| CNCc1ccc(-c2[nH]c3cc(F)cc4c3c2CCNC4=O)cc1 + Cc1cccc(N(C)C(=O)C2C(O)CCN2c2nc(C)cc(C(F)(F)F)c2C#N)c1 | 99 |
| COc1ccc([C@@H](O)c2cc(-c3ncnc4cc(N5CCOCC5)ccc34)c(F)cc2Cl)nn1 + Nc1ccc(C#CCN(C(=O)Cc2ncc(C(F)(F)F)cc2C(F)(F)F)c2ccc(F)cc2)nn1 | 101 |
| CCc1cc2c(N3CCc4c(cc(Cn5ccnc5)cc4-c4cn(C)nc4C(F)(F)F)C3=O)cc(C)nc2c(OC)n1 + Nc1ccc(C#CCN(C(=O)Cc2ncc(C(F)(F)F)cc2C(F)(F)F)c2ccc(F)cc2)nn1 | 109 |
| C=CCn1c(=O)c2cnc(Nc3ccc(N4CCN(C)CC4)cc3)nc2n1-c1cccc(C(C)(C)O)n1 + COC1C(OC(N)=O)C(O)C(Oc2ccc3c(O)c(NC(=O)c4ccc(O)c(CC=C(C)C)c4)c(=O)oc3c2C)OC1(C)C | 106 |
| COc1cc(C2c3cc4c(cc3C(OC3OC5COC(C)OC5C(O)C3O)C3COC(=O)C23)OCO4)cc(OC)c1O (stereo unspecified) + COC1C(OC(N)=O)C(O)C(Oc2ccc3c(O)c(NC(=O)c4ccc(O)c(CC=C(C)C)c4)c(=O)oc3c2C)OC1(C)C | 99.4 |

---

Test system: 695427-040-R-J1-PDC complex spheroid viability
Protocol notes: Anticancer human tumor 695427-040-R-J1-PDC cell line growth inhibition [POLQ];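 note: spheroids exposed to compounds for seven days; 100% = DMSO vehicle control viability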
Reported conditions: second compound 0.316 µM; first compound 0.316 µM; active compounds read low

| Compound | viability, T/C |
| --- | --- |
| COc1cc2cc(C(=O)CCC(=O)O)sc2cc1OC + COC1C(OC(N)=O)C(O)C(Oc2ccc3c(O)c(NC(=O)c4ccc(O)c(CC=C(C)C)c4)c(=O)oc3c2C)OC1(C)C | 99.8% |
| O=C(Nc1ccc(O)c(NS(=O)(=O)c2ccc(F)cc2)c1)c1ccc(-c2ccccc2)cc1 + Cc1cccc(N(C)C(=O)C2C(O)CCN2c2nc(C)cc(C(F)(F)F)c2C#N)c1 | 97.4% |
| CC(C)n1c(=O)n(C)c2cnc3cc(F)c(-c4ccc(OCCCN5CCCCC5)nc4)cc3c21 + Cc1cccc(N(C)C(=O)C2C(O)CCN2c2nc(C)cc(C(F)(F)F)c2C#N)c1 | 106% |
| COc1cc(C2c3cc4c(cc3C(OC3OC5COC(C)OC5C(O)C3O)C3COC(=O)C23)OCO4)cc(OC)c1O (stereo not given) + Nc1ccc(C#CCN(C(=O)Cc2ncc(C(F)(F)F)cc2C(F)(F)F)c2ccc(F)cc2)nn1 | 98.3% |
| CC1COCCN1c1cc(-c2ccnn2C)c2ccnc(-c3ccn[nH]3)c2n1 (stereo not given) + Cc1cccc(N(C)C(=O)C2C(O)CCN2c2nc(C)cc(C(F)(F)F)c2C#N)c1 | 65.3% |
